Origin of the recorded values: ChEMBL document CHEMBL1201862

tested on: SK-MEL-28; test: NCI tumour cell line growth inhibition, 48 h
Activity calls are given as the source filed them. No stated cut-off is given here; in the data, active = GI50 up to about 1.1 µM and inactive = higher.
Reported GI50 values for the following compounds.

For orientation, consider the following solved cases.
CC1CCCCCC(=O)c2c(O)cc(O)cc2CC(=O)O1 (configuration not stated) [CURVULARIN]: > 100 µM (inactive)
C[C@@H]1OC2(O)[C@@H]3CCCN3C(=O)N(Cc3ccccc3)N2C1=O (some centres not stated): > 100 µM (inactive)

Challenge: Fill in reported GI50 for this entry: NC(=O)NC(=O)c1ccc(NC(=O)CBr)cc1
Response given: 3.2 µM (inactive)

Challenge: Fill in reported GI50 for this entry: O=C1/C(=C/c2ccc(Br)s2)NC(=S)N1CN1CCCCC1
Response given: 41.1 µM (inactive)

Challenge: Fill in reported GI50 for this entry: CC(C)(C)OC(=O)C1=C(C(=O)OC(C)(C)C)SC2(S1)C(C(=O)OC(C)(C)C)=C(C(=O)OC(C)(C)C)Sc1c2ssc1=O
Response given: 73.1 µM (inactive)

Challenge: Fill in reported GI50 for this entry: O=C(N/N=C\c1ccc2ccccc2c1)Nc1ccc([N+](=O)[O-])cc1
Response given: 26.2 µM (inactive)

Challenge: Fill in reported GI50 for this entry: COc1ccc(CN2C[C@H]3[C@@H](CC(=O)O[C@H]3C)CC2=O)cc1
Response given: > 100 µM (inactive)

Challenge: Fill in reported GI50 for this entry: CC(=O)O[C@H]1[C@@H](N2CCN(C)CC2)C[C@H]2[C@@H]3CC=C4C[C@@H](N5CCCC5)CC[C@]4(C)[C@H]3CC[C@@]21C
Response given: 28.1 µM (inactive)

Challenge: Fill in reported GI50 for this entry: C=C1C(=O)O[C@H]2C[C@@]3(COC(C)=O)C=COC=C(COC(=O)C(C)C)C3CC12 (some centres not stated)
Response given: > 100 µM (inactive)

Challenge: Fill in reported GI50 for this entry: CCCCCCCC1(c2ccc(N)cc2)CCC(=O)NC1=O (configuration not stated)
Response given: 28.7 µM (inactive)
